# Tested on: A549
# experimental_details: Cytotoxicity against human A549 cells after 72 hrs by MTT assay
# Assay type: functional, cell-based
# condition_details: A549, 72 h
pIC50: −log10 of the molar value.
Parameter: pIC50. Scope: all listed entries.
parameter: pIC50

given_smiles: O=C(/C=C/C(=O)N1CCN(Cc2ccc(Cl)c(Cl)c2)CC1)c1ccccc1
relation_operator: =
observed_measurement: 3.86
--
given_smiles: O=C(/C=C/c1ccc(O)c(O)c1)OCCc1ccccc1
relation_operator: =
observed_measurement: 4.57
--
given_smiles: O=C(/C=C/c1ccc(O)c(O)c1)NCCc1c[nH]c2ccccc12
relation_operator: <
observed_measurement: 3.70
--
given_smiles: O=C(/C=C/c1ccccc1)NNC(=O)c1ccccc1O
relation_operator: =
observed_measurement: 4.14
--
given_smiles: COc1ccc(/C=C/C(=O)N2CCN(Cc3ccc(Cl)c(Cl)c3)CC2)cc1OC
relation_operator: <
observed_measurement: 3.70
